# subject of test: T1, human LRRC15 extracellular domain with C-terminal His tag (human, UniProt Q8TF66 22-538)
# T1 construct: Recombinant, made in HEK293; the entry holds the extracellular domain and the His tag; SPR analyte; also called TPP-1545; hLRRC15 CT-His
# T1 sequence: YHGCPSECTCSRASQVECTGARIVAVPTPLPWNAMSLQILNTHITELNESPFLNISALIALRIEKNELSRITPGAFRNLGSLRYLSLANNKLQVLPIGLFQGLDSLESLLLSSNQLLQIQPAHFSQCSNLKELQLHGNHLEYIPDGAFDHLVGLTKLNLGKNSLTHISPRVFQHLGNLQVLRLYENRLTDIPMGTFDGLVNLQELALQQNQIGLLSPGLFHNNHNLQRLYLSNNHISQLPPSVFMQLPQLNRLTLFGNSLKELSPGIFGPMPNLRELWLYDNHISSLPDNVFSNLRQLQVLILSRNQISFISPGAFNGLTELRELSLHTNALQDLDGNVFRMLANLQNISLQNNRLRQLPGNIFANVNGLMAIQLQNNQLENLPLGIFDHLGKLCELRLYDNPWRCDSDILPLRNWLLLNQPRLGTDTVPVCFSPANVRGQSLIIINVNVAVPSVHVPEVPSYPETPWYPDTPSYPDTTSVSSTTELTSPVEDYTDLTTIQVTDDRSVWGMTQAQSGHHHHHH
# assay overview: SPR Biacore T200, antibody captured, LRRC15 analyte, 10°C
Task for the reader: assign each of the following binders its reported pKd.
Units for pKd: none; it is -log10 of a concentration expressed in mol/L.

*Q* Quick one: pKd of TPP-1633 (antibody, human IgG1, kappa, V domains shown, also called 060E-M016-G14-hIgG1) VH: EVQLLESGGGLVQPGGSLRLSCAASGFTFSGYMMQWVRQAPGKGLEWVSGIYPSGGYTNYADSVKGRFTISRDNSKNTLYLQMNSLRAEDTATYYCAREKASDLSGSYSEALDYWGQGTLVTVSS VL: DIQMTQSPDSLSASVGDRVTITCRASQDVGSWLAWYQQKPGKAPKLLIFAASSLESGIPSRFSGSGSGTDFTLTISSLQPEDFATYYCQQANGFPLTFGGGTKVEIKR ?
*A* 7.74

*Q* Quick one: pKd of TPP-17421 (antibody, human IgG1, kappa, V domains shown, also called 438H-M306-C11-hIgG1Kappa) VH: EVQLVQSGAEVKKPGASVKVSCKASGYKFSSYWIEWVKQAPGQGLEWIGEILPGSDWTNYNEKFKDRATFTSDTSINTAYMELSRLRSDDTAVYYCARDRGNYRAWFQYWGQGTLVTVSS VL: DIQMTQSPSSLSASVGDRVTITCRASQSISSYLNWYQQKPGGAPKFLIYYASSLQSGVPSRFSGSGSGTDYTLTISSLQPEDFATYYCQQGLELPWTFGGGTKVEIKR ?
*A* 9.34

*Q* Quick one: pKd of TPP-14389 (antibody, human IgG1, kappa, V domains shown, also called 13612-rec02-hIgG1Kappa) VH: EVQLLESGGGLVQPGGSLRLSCAASGFTFSGYMMSWVRQAPGKGLEWVSGIYPSPGYTYYADSVKGRFTISRDNSKNTLYLQMNSLRAEDTAVYYCAREKASDLFGSYSEALDYWGQGTLVTVSS VL: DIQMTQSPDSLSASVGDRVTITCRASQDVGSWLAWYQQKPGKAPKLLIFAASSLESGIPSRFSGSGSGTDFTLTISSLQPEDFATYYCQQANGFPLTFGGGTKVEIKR ?
*A* 9.21
